tested on: Haemophilus influenzae Wy21; test: MIC against human bacteria in vitro; type: cell-based; conditions: Haemophilus influenzae, WY21, 18 h
What MIC was measured for each of the following?
One number for each entry, in µg/mL.

>>> endpoint_value("C/C(=C\\c1ncc(-c2ccccc2[N+](=O)[O-])o1)C[C@@H]1OC[C@H](C[C@@H]2O[C@H]2[C@@H](C)[C@H](C)O)[C@@H](O)[C@H]1O")
0.25
>>> endpoint_value("COC(=O)CCCCCCCc1cnc(/C=C(\\C)C[C@@H]2OC[C@H](C[C@@H]3O[C@H]3[C@@H](C)[C@H](C)O)[C@@H](O)[C@H]2O)o1")
1
>>> endpoint_value("CSc1ccc(-c2cnc(/C=C(\\C)C[C@@H]3OC[C@H](C[C@@H]4O[C@H]4[C@@H](C)[C@H](C)O)[C@@H](O)[C@H]3O)o2)cc1")
50
>>> endpoint_value("C/C(=C\\c1ncc(-c2ccsc2)o1)C[C@@H]1OC[C@H](C[C@@H]2O[C@H]2[C@@H](C)[C@H](C)O)[C@@H](O)[C@H]1O")
0.5
>>> endpoint_value("C/C(=C\\c1ncc(-c2ccc(CO)cc2)o1)C[C@@H]1OC[C@H](C[C@@H]2O[C@H]2[C@@H](C)[C@H](C)O)[C@@H](O)[C@H]1O")
1

Note: attention shifts to another entry.
Enquiry: Recorded MIC for C/C(=C\c1cc(C)on1)C[C@@H]1OC[C@H](C[C@@H]2O[C@H]2[C@@H](C)[C@H](C)O)[C@@H](O)[C@H]1O , please?
Return: 0.25
